Values were extracted from patent US10039282B2.

Experiment: log P by reversed-phase HPLC analogously to OECD Guideline 117
Assay type: physicochemical
Settings: pH 2.7
Answer each item with its documented logP (HCOOH).
Numbers only.

>  <molecule>
O=C(C=C(O)C(F)(F)F)Nc1cc(SCC(F)(F)F)c(Br)cc1F [XXXI-5]

>  <logP (HCOOH)>
2.93

$$$$
>  <molecule>
Cc1ccc(NC(=O)C=C(O)C(F)(F)F)cc1SCC(F)(F)F [XXXI-6]

>  <logP (HCOOH)>
2.80

$$$$
>  <molecule>
Cc1cc(F)c(NC(=O)C=C(O)C(C)(F)F)cc1SCC(F)(F)F [XXXI-11]

>  <logP (HCOOH)>
2.72

$$$$
>  <molecule>
Cc1cc(C)c(SCC(F)(F)F)cc1NC(=O)C=C(O)C(F)F [XXXI-10]

>  <logP (HCOOH)>
2.53

$$$$
>  <molecule>
Cc1cc(F)c(NC(=O)C=C(N)C(F)F)cc1SCC(F)(F)F [IIa-9]

>  <logP (HCOOH)>
3.23

$$$$
>  <molecule>
NC(=CC(=O)Nc1ccc(Cl)c(SCC(F)(F)F)c1)C(F)(F)F [IIa-7]

>  <logP (HCOOH)>
3.66

$$$$
>  <molecule>
Cc1cc(Cl)c(NC(=O)C=C(O)C(F)(F)F)cc1SCC(F)(F)F [XXXI-8]

>  <logP (HCOOH)>
3.01

$$$$
>  <molecule>
NC(=CC(=O)Nc1cc(SCC(F)(F)F)c(Cl)cc1F)C(F)(F)F [IIa-4]

>  <logP (HCOOH)>
3.83

$$$$
>  <molecule>
Cc1cc(F)c(NC(=O)C=C(O)C(F)F)cc1SCC(F)(F)F [XXXI-9]

>  <logP (HCOOH)>
2.47

$$$$

Please fill in: logP (HCOOH) reported for O=C(C=C(O)C(F)(F)F)Nc1cc(SCC(F)(F)F)c(Cl)cc1Cl [XXXI-3] = 3.13
